For each of the variants below, state its protein stability index.
B1: ZBED3 (parent)
chain: GPGFHAGTSALWRHLRSAHRRELE

- Variants of: B1
- Run Description: protein stability index of a GFP-peptide fusion (GPS, HEK-293T) (PSI 1-6); higher = more stable;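 note: lentivirally expressed fusions sorted by FACS into six bins by GFP to DsRed ratio, PSI derived from sequencing read proportions per bin multiplied by bin number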
- Experimental Parameters: c terminus: a fixed tail appended
Reply with the value as a number alone.

What does the data say about its protein stability index? Entry: APGFHAGTSALWRHLRSAHRRELE
2.7

What does the data say about its protein stability index? Entry: GPGFHAGTSALWRHLQSAHRRELE
2.33

What does the data say about its protein stability index? Entry: GPGFHAGTSALWRQLRSAHRRELE
2.51

What does the data say about its protein stability index? Entry: GPGFNAGTSALWRHLRSAHRRELE
3.06

What does the data say about its protein stability index? Entry: GPGFHAGTIALWRHLRSAHRRELE
1.74

What does the data say about its protein stability index? Entry: GPGFHAGTSALWRHLRSAHRRELN
1.91

What does the data say about its protein stability index? Entry: GPGFHAGTSALWRHLRSAHRRELC
1.65

What does the data say about its protein stability index? Entry: GPGFHAGTSALWRHLRSAHRRELT
2.35

What does the data say about its protein stability index? Entry: GPGFTAGTSALWRHLRSAHRRELE
3.16

What does the data say about its protein stability index? Entry: GPGFHAGTSALWRHLRSAHWRELE
2.83

What does the data say about its protein stability index? Entry: GPGFHAGTSALWRHLRSAHRRTLE
2.23

What does the data say about its protein stability index? Entry: GPGFHAGTSALWRHLSSAHRRELE
2.21

What does the data say about its protein stability index? Entry: GPGFHAGTSALWRHLWSAHRRELE
1.66

What does the data say about its protein stability index? Entry: GPGMHAGTSALWRHLRSAHRRELE
2.68

What does the data say about its protein stability index? Entry: GFGFHAGTSALWRHLRSAHRRELE
1.89

What does the data say about its protein stability index? Entry: GPGFHAGTSALWRHLRSAHHRELE
1.37

What does the data say about its protein stability index? Entry: GPGFHAGTSATWRHLRSAHRRELE
2.16

What does the data say about its protein stability index? Entry: GPGFHAGTSALWRPLRSAHRRELE
2.1
